Experiment: Aqueous solubility of the compound in at pH 7.4
Conditions: buffer
For each of the molecules below, state its solubility.

Take a look at these entries with their results.
{"columns": ["record.smiles", "measured.value"],
 "data": [
  ["CS(=O)(=O)c1ccc(N2CCN(C(=O)[C@@H]3CCCC[C@H]3C(=O)NCC#N)CC2)cc1", "280 µM"],
  ["Cc1nn(C)c2cc(N3CCN(C(=O)[C@@H]4CCCC[C@H]4C(=O)NC4(C#N)CC4)[C@H](C)C3)ccc12", "> 1100 µM"],
  ["Cc1nn(C)c2ccc(N3CCN(C(=O)[C@@H]4CCCC[C@H]4C(=O)NC4(C#N)CC4)[C@H](C)C3)cc12", "> 1400 µM"]
]}

Data request: For the molecule shown here, "COc1ccc(N2CCN(C(=O)[C@@H]3CCCC[C@H]3C(=O)NC3(C#N)CC3)[C@H](C)C2)nc1OC" , give the reported solubility.
Data returned: > 1700 µM

Data credit: ChEMBL document CHEMBL2169826
